Target: UniProt:Q15119
Assay: Inhibitory action of PDHK activity in vitro (kinase reaction, residual PDH activity measured)
Format: biochemical
Details: read-out: PDHK inhibitory activity IC50
pIC50: −log10 of the molar value.
Label scheme for pIC50: lower than 6 is NOT MET, 6 and above is MET.

Ask: Does pIC50 meet or surpass 6 for CCc1cc(CO)c2c(c1)C(O)(C(F)(F)F)c1ccccc1-2 (stereo not drawn) ?
Reply: NOT MET

Ask: In plain terms: is recorded pIC50 at least 6 for CC(C)(C)n1cc(-c2ccc3c(c2)C(O)(C(F)(F)F)c2cccc(CO)c2-3)cn1 (stereo not drawn) ?
Reply: NOT MET

Ask: Assess whether reported pIC50 for Cn1cc(-c2cc(OCC(=O)N3CC(O)C3)cc3c2-c2ccccc2C3(O)C(F)(F)F)cn1 (single isomer, unassigned) sits at 6 or higher.
Reply: MET

Ask: Tell me whether pIC50 is at least 6 here: CC(C)(O)C(C)(C)n1cc(-c2cc(F)cc3c2-c2ccccc2C3(O)C(F)(F)F)cn1 (single isomer, unassigned)
Reply: MET

Ask: Assess whether reported pIC50 for CCN(CC)C(=O)c1ccc2c(c1)C(O)(C(F)(F)F)c1ccccc1-2 (stereo not drawn) sits at 6 or higher.
Reply: NOT MET

Ask: hey, is pIC50 for this one >= 6? O=C(c1ccc2c(c1)C(O)(C(F)(F)F)c1ccccc1-2)N1CCOCC1 (stereo not drawn)
Reply: NOT MET

Ask: Does the compound N#Cc1cccc2c1-c1ccccc1C2(O)C(F)(F)F (stereo not drawn) have recorded pIC50 that is 6 or more?
Reply: NOT MET

Ask: Check the entry Cn1cc(-c2cc(OCCCO)cc3c2-c2ccccc2C3(O)C(F)(F)F)cn1 (stereo not drawn) : does pIC50 equal or exceed 6?
Reply: MET

Ask: Say whether O=C(COc1ccc2c(c1)C(O)(C(F)(F)F)c1ccccc1-2)N(CCO)CCO (stereo not drawn) shows pIC50 of 6 or more.
Reply: NOT MET

Ask: Is pIC50 at least 6? Consider C#Cc1cc(CO)c2c(c1)C(O)(C(F)(F)F)c1ccccc1-2 (stereo not drawn)
Reply: MET

Ask: Is pIC50 for CC(=O)N(C)C[C@H](O)COc1cc(-c2cnn(C)c2)c2c(c1)C(O)(C(F)(F)F)c1ccccc1-2 (stereo partly drawn) at or above 6?
Reply: MET

Ask: Please indicate if the recorded pIC50 for Cn1cc(-c2cc(OCC(=O)N3CCC(CO)CC3)cc3c2-c2ccccc2C3(O)C(F)(F)F)cn1 (stereo not drawn) meets or exceeds 6.
Reply: MET

Ask: Exam item: decide whether the reported pIC50 for OC1(C(F)(F)F)c2ccccc2-c2ccc(-c3cc(Cl)cc(Cl)c3)cc21 (stereo not drawn) is at least 6.
Reply: NOT MET

Ask: Check this compound for pIC50 at or above 6: CCNC(=O)c1ccc2c(c1)C(O)(C(F)(F)F)c1ccccc1-2 (stereo not drawn)
Reply: NOT MET

Ask: Entry NC(=O)C1CCCN1C(=O)c1ccc2c(c1)C(O)(C(F)(F)F)c1ccccc1-2 (stereo not drawn) : is its pIC50 no less than 6?
Reply: NOT MET

Ask: Does pIC50 meet or surpass 6 for Cc1ccc2c(c1)C(O)(C(F)(F)F)c1cccnc1-2 (stereo not drawn) ?
Reply: NOT MET

Ask: Is reported pIC50 greater than or equal to 6 here: CCNC(=O)c1ccc2c(c1)-c1ccccc1C2(O)C(F)(F)F (stereo not drawn)
Reply: NOT MET

Ask: Given the entry CN(C)C1CCN(C(=O)c2ccc3c(c2)C(O)(C(F)(F)F)c2ccccc2-3)C1 (stereo not drawn) , answer whether its pIC50 meets or surpasses 6.
Reply: NOT MET

Ask: Hi, just wondering whether Cn1cc(-c2cc(-c3cnn(C)c3)c3c(c2)C(O)(C(F)(F)F)c2ccccc2-3)cn1 (stereo not drawn) shows pIC50 of 6 or higher.
Reply: MET

Ask: Decide: is the reported value of pIC50 for OC12CC3CC(C1)CC(Cn1cc(-c4cccc5c4-c4ccccc4C5(O)C(F)(F)F)cn1)(C3)C2 (stereo not drawn) equal to or greater than 6?
Reply: MET

Ask: Quick check, pIC50 >= 6? CNC(=O)C1CCN(c2ccc3c(c2)C(O)(C(F)(F)F)c2ccccc2-3)CC1 (stereo not drawn)
Reply: NOT MET

Ask: Reported pIC50 reaches at least 6 for COc1cc(-c2cnn(CCC(=O)O)c2)c2c(c1)C(O)(C(F)(F)F)c1ccccc1-2 (single isomer, unassigned) ?
Reply: MET
